I'd appreciate it if you could supply pIC50 values for the items below.
# Measurement target: UniProt:P42345
# Assay explanation: mTOR enzyme assay (DELFIA format, His6-S6K substrate)
# Type: biochemical
# Measurement setup: read-out: mTOR Kinase Median IC50
Answers are plain numbers, as −log10 of the molar value.

Some solved entries appear below for comparison.
Molecule | pIC50
Cn1cc(/C=C2\Oc3ccc(C(=O)O)cc3C2=O)c2c(-c3ccccc3)ccnc21 | 6.35
COC1CCN(C(=O)c2ccc(-c3ccnc4c3c(/C=C3\Oc5cccc(O)c5C3=O)cn4C)cc2)C1 (stereo not drawn) | 9.22
CNS(=O)(=O)c1ccc(-c2ccnc3c2c(/C=C2\Oc4cc(O)cc(O)c4C2=O)cn3C)cc1 | 9.70
Cn1cc(/C=C2\Oc3ccc(NC(=O)Nc4ccccc4)cc3C2=O)c2c(N3CC4CCC(C3)O4)ccnc21 | 6.84
CN(C)CCNC(=O)C1CCN(c2ccnc3c2c(/C=C2\Oc4ccc(NC(=O)Nc5cccnc5)cc4C2=O)cn3C)CC1 | 7.65
Cn1cc(/C=C2\Oc3cc(O)cc(O)c3C2=O)c2c(C#Cc3ccccc3)ccnc21 | 8.24
COCCC1CN(c2ccnc3c2c(/C=C2\Oc4ccc(NC(=O)Nc5cccnc5)cc4C2=O)cn3C)CCO1 (stereo not drawn) | 7.59
Cn1cc(/C=C2\Oc3cccc(O)c3C2=O)c2c(N3CCOCC3)ccnc21 | 8.66

Parameters: items (list). Returns: pIC50 for each item.
1. Cn1cc(/C=C2\Oc3cc(O)cc(O)c3C2=O)c2c(N3CC4CCC(C3)O4)ccnc21
2. Cn1cc(/C=C2\Oc3ccc(NC(=O)Nc4cccnc4)cc3C2=O)c2c(C3=CCOCC3)ccnc21
3. Cn1cc(/C=C2\Oc3cc(O)cc(O)c3C2=O)c2c(C3=CCNCC3)ccnc21
4. CN1CCN(c2ccnc3c2c(/C=C2\Oc4cccc(O)c4C2=O)cn3C)CC1
5. Cn1cc(/C=C2\Oc3cccc(O)c3C2=O)c2c(-c3ccc(C(=O)N4CCCC4)cc3)ccnc21
6. C[C@@H]1CN(C(=O)C2CCN(c3ccnc4c3c(/C=C3\Oc5cccc(O)c5C3=O)cn4C)CC2)C[C@H](C)O1
7. Cn1cc(C=C2Oc3ccc(NC(=O)Nc4cccnc4)cc3C2=O)c2c(N3CCC(C(=O)NC4CCS(=O)(=O)C4)CC3)ccnc21 (stereo not drawn)

// result
1. 10.00
2. 7.56
3. 8.30
4. 8.55
5. 9.15
6. 8.49
7. 8.24

====

# Measurement target: mTOR (Homo sapiens, UniProt P42345)
# Assay explanation: mTOR enzyme assay (DELFIA format, His6-S6K substrate)
# Assay type: biochemical
# Measurement setup: read-out: mTOR Kinase Median IC50
# label = Fulfilled if IC50 < 4 nM else Not fulfilled

Some solved cases for reference:
Compound | Cat
Cn1cc(/C=C2\Oc3ccc(NC(=O)Nc4cccnc4)cc3C2=O)c2c(N3CCC(C(=O)N4CCCCC4)CC3)ccnc21 | Not fulfilled
COc1ccc(-c2ccnc3c2c(/C=C2\Oc4cccc(O)c4C2=O)cn3C)cn1 | Not fulfilled

// query For this compound, is IC50 lower than 4 nM? COCCCN(C)C(=O)C1CCN(c2ccnc3c2c(C=C2Oc4ccc(NC(=O)Nc5cccnc5)cc4C2=O)cn3C)CC1
// result Not fulfilled

// query Just wondering, is IC50 of Cn1cc(/C=C2\Oc3cccc(O)c3C2=O)c2c(-c3ccc(F)c(C(=O)Nc4ccccc4)c3)ccnc21 below 4 nM?
// result Not fulfilled

// query Does Cn1cc(/C=C2\Oc3cccc(O)c3C2=O)c2c(-c3ccc(-c4ccco4)cc3)ccnc21 have IC50 strictly under 4 nM?
// result Not fulfilled

// query Hello, I'm reviewing records and need to know if IC50 of Cn1cc(/C=C2\Oc3cc(O)cc(O)c3C2=O)c2c(/C=C/c3ccccc3)ccnc21 is below 4 nM. Could you check?
// result Fulfilled

// query Does Cn1cc(/C=C2\Oc3cc(O)cc(O)c3C2=O)c2c(-c3ccccc3)ccnc21 have IC50 strictly under 4 nM?
// result Fulfilled

// query Strictly below 4 nM in IC50? Cc1cnccc1CN(C)C(=O)C1CCN(c2ccnc3c2c(/C=C2\Oc4ccc(NC(=O)Nc5cccnc5)cc4C2=O)cn3C)CC1
// result Not fulfilled
